Molecular target: AKT1 E17K (Homo sapiens, UniProt P31749, E17K)
Sequence (P31749 whole entry E17K): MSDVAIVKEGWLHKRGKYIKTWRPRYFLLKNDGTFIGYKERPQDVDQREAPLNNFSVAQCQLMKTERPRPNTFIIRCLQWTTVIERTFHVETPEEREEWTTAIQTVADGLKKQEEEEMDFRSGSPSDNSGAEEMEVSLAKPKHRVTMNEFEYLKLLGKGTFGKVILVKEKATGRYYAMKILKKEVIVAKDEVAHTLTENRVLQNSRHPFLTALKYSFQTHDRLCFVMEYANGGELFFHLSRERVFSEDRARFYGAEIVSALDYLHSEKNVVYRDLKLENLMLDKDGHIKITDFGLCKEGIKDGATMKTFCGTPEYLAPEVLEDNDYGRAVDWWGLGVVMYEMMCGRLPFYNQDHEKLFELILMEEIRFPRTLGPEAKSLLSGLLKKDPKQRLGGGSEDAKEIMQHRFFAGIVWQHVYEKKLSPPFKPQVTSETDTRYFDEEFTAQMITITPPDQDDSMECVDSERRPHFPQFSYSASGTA
Assay: Live cell target engagement by NanoBRET competitive probe displacement, AKT1 E17K
Conditions: transfected HEK293 cells, 2 h at 37° C., read-out: AKT1 E17K IC50: GeoMean IC50
pIC50: −log10 of the molar value.
assay metric: pIC50

1. Cc1ccc(-c2nc3ccc(-n4cccn4)nc3n2-c2ccc3c(c2)CC[C@@H]3NC(=O)c2ccc(O)c(C=O)c2)c(N)n1    ≤ 5.70
2. Nc1ncccc1-c1nc2ccc(-n3ccc(CO)n3)nc2n1-c1ccc2c(c1)CC[C@@H]2NC(=O)c1ccc(O)c(C=O)c1    7.00 to 8.00
3. Cc1cc(-n2cccn2)nc2c1nc(-c1cccnc1N)n2-c1ccc2c(c1)CC[C@@H]2NC(=O)c1cc(C=O)c(O)c(F)c1F    7.00 to 8.00

I'm hoping you can list pIC50 for every compound here, please.
1. Nc1ncccc1-c1nc2ccc(-c3ccccc3)nc2n1-c1ccc2c(c1)CC[C@@H]2NC(=O)c1cc(C=O)c(O)cc1Cl
2. Nc1ncccc1-c1nc2ccc(-n3cccn3)nc2n1-c1ccc2c(c1)CC[C@@H]2NC(=O)c1cc(C=O)c(O)c(OC(F)F)c1
3. Nc1ncccc1-c1nc2ccc(-c3cnccn3)nc2n1-c1ccc2c(c1)CC[C@@H]2NC(=O)c1cc(C=O)c(O)c(F)c1F

A.
1: 7.00 to 8.00; 2: 7.00 to 8.00; 3: 7.00 to 8.00
